Answer each item with its documented Dead mouse.
# Test system: ICR male mice
# assay.summary: Acute toxicity in ICR mice, intraperitoneal administration
# Format: in vivo
# measurement.setup: 3 per group, 50 mg/kg intraperitoneally, twice a day, for four days, number of dead animals after 5 days

# compound, Dead mouse
measured = [
    ("C[C@H](NC(=O)[C@H](CCCNC(=N)N)NC(=O)c1ccc(CNCc2ncc[nH]2)c2ccccc12)c1cccc2ccccc12 [Compound No. 49]", "0/3"),
    ("C[C@H](NC(=O)[C@H](CCCNC(=N)N)NC(=O)c1ccc(CNCc2nccn2C)c2ccccc12)c1cccc2ccccc12 [Compound No. 97]", "0/3"),
    ("O=C(N[C@@H](CCCNC1CCCc2cccnc21)C(=O)NCCc1c[nH]c2ccccc12)c1ccc(CNCc2ccccn2)c2ccccc12 (stereo partly drawn) [Compound No. 92]", "0/3"),
    ("C[C@H](NC(=O)[C@H](CCCNC1CCCc2cccnc21)NC(=O)c1ccc(CNCc2ncc[nH]2)c2ccccc12)c1cccc2ccccc12 (stereo partly drawn) [Compound No. 57]", "0/3"),
    ("O=C(N[C@@H](CCCNC1CCCc2cccnc21)C(=O)NCc1cccc2ccccc12)c1ccc(CNCc2ncc[nH]2)c2ccccc12 (stereo partly drawn) [Compound No. 41]", "0/3"),
]

Find Dead mouse (ICR male mice) for the entry O=C(N[C@@H](CCCNC1CCCc2cccnc21)C(=O)NCc1cccc2ccccc12)c1ccc(CNCc2ccccn2)cc1 (stereo partly drawn) [Compound No. 65]
0/3

###

# Test system: ICR male mice
# assay.summary: Acute toxicity in ICR mice, intraperitoneal administration
# Format: in vivo
# measurement.setup: 3 per group, 50 mg/kg intraperitoneally, twice a day, for four days, number of dead animals after 5 days
Answer each item with its documented Dead mouse.

Example cases with answers are listed next.
# molecule, measurement.type, observed.value
records = [
    ("O=C(N[C@@H](CCCNC1CCCc2cccnc21)C(=O)NCc1cccc2ccccc12)c1ccc(CNCc2ncc[nH]2)cc1 (stereo partly drawn)", "Dead mouse", "0/3"),
    ("Cn1ccnc1CNCc1ccc(C(=O)N[C@@H](CCCNC2CCCc3cccnc32)C(=O)NCc2cccc3ccccc23)cc1 (stereo partly drawn)", "Dead mouse", "0/3"),
    ("C[C@H](NC(=O)[C@H](CCCNC1CCCc2cccnc21)NC(=O)c1ccc(CNCc2nccn2C)cc1)c1cccc2ccccc12 (stereo partly drawn)", "Dead mouse", "0/3"),
    ("C[C@H](NC(=O)[C@H](CCCNC(=N)N)NC(=O)c1ccc(CNCc2ccccn2)c2ccccc12)c1cccc2ccccc12", "Dead mouse", "0/3"),
    ("C[C@H](NC(=O)[C@H](CCCNC1CCCc2cccnc21)NC(=O)c1ccc(CNCc2ncc[nH]2)cc1)c1cccc2ccccc12 (stereo partly drawn)", "Dead mouse", "0/3"),
]

Request the reported Dead mouse associated with C[C@H](NC(=O)[C@H](CCCN=C(N)N)NC(=O)c1ccc(CNCc2ccccn2)cc1)c1cccc2ccccc12
0/3
